Entries and their pIC50 values follow.
systemTested: UniProt Q9UHD2
Sequence (Q9UHD2 whole entry): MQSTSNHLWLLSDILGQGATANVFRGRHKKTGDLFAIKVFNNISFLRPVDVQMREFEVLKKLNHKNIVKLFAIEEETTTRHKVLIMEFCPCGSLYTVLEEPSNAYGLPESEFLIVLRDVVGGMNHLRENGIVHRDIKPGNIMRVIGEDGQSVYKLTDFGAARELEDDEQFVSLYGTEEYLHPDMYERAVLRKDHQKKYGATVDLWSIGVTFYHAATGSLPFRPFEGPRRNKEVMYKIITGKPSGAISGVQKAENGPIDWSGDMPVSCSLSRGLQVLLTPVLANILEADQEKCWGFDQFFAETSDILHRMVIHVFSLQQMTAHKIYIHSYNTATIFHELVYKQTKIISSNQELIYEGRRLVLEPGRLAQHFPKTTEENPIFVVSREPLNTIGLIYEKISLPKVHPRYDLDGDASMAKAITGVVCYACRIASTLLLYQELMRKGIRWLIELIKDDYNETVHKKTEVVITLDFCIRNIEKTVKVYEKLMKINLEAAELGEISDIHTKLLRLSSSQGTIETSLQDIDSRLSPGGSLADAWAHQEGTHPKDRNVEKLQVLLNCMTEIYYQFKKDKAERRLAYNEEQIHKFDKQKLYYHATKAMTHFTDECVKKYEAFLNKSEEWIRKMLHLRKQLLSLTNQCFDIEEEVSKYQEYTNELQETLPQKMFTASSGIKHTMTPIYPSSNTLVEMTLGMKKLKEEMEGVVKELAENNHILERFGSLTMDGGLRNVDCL
assayRemarks: TBK1 low ATP kinase assay (in vitro assay 1)
Format: biochemical
measurementSetup: in vitro assay 1, read-out: TBK1 low ATP kinase assay IC50
pIC50: −log10 of the molar value.
readoutName: pIC50

| molecule | testResult |
| --- | --- |
| COc1cc(-c2ccc3nc(Nc4cc(CN5CCN(C(=O)C6CCC6)CC5)ccn4)[nH]c3c2)c(F)cn1 | 6.55 |
| CC(C)(C)OC(=O)N1CCN(Cc2ccnc(Nc3nc4ccc(-c5ccnc(N6CCCC6)n5)cc4[nH]3)c2)CC1 | 6.64 |
| CN(CC(F)(F)F)c1cc(-c2ccc3nc(Nc4cc(CN5CCN(C(=O)OC(C)(C)C)CC5)ccn4)[nH]c3c2)ncn1 | 7.85 |
| O=C(C1CC1)N1CCN(Cc2ccnc(Nc3nc4ccc(-c5ccn(CC6CC6)c(=O)c5)cc4[nH]3)c2)CC1 | 7.18 |
| Cc1cc(-c2ccc3nc(Nc4cc(CN5CCN(C(=O)OC(C)(C)C)CC5)ccn4)[nH]c3c2)nc(N(C)C)n1 | 6.05 |
| CC(c1ccnc(Nc2nc3ccc(-c4cc(C(F)F)ncn4)cc3[nH]2)c1)N1CCN(C(=O)OC(C)(C)C)CC1 (single isomer, unassigned) | 7.95 |
| O=C(C1CC1)N1CCN(Cc2ccnc(Nc3nc4ccc(-c5cnn(CC(F)(F)F)c5)cc4[nH]3)c2)CC1 | 8.19 |
| O=C(CC(F)(F)F)N1CCN(Cc2ccnc(Nc3nc4ccc(-c5cc(NC6CCC6)ncn5)cc4[nH]3)c2)CC1 | 9.32 |
| CC(C)(C)OC(=O)N1CCN(Cc2ccnc(Nc3nc4ccc(-c5cc(OCC6(C(F)(F)F)CC6)ncn5)cc4[nH]3)c2)CC1 | 6.80 |
| CC(c1ccnc(Nc2nc3ccc(-c4cc(N5CC(C(F)(F)F)C5)ncn4)cc3[nH]2)c1)N1CCN(C(=O)CC(F)(F)F)CC1 (single isomer, unassigned) | 9.03 |
| O=C(C1CCC1)N1CCN(Cc2ccnc(Nc3nc4ccc(-c5cnn(CC(F)(F)F)c5)cc4[nH]3)c2)CC1 | 7.89 |
| CSc1cc(-c2ccc3nc(Nc4cc(CN5CCN(C(=O)C6CC6)CC5)ccn4)[nH]c3c2)ncn1 | 8.02 |
| Cc1noc(-c2ccc3nc(Nc4cc(CN5CCN(c6cnccn6)CC5)ccn4)[nH]c3c2)n1 | 6.44 |
| Cc1noc(-c2ccc3nc(Nc4cc(CN5CCN(c6ccc(C#N)cc6)CC5)ccn4)[nH]c3c2)n1 | 5.82 |
| COCCCNc1cc(-c2ccc3nc(Nc4cc(CN5CCN(C(=O)CC(F)(F)F)CC5)ccn4)[nH]c3c2)ncn1 | 7.96 |
| CC(C)(C)OC(=O)N1CCN(Cc2ccnc(Nc3nc4ccc(-c5ncnc(NCC6CC6)c5F)cc4[nH]3)c2)CC1 | 6.98 |
| COc1cc(-c2ccc3nc(Nc4cc(CN5CCN(C(=O)C6CC6)CC5)ccn4)[nH]c3c2OCC(C)C)ccn1 | 6.66 |
| CC(C)(C)OC(=O)N1CCN(Cc2ccnc(Nc3nc4ccc(-c5cc(NCC6CC6)ncn5)cc4[nH]3)c2)CC1 | 8.12 |
| Cc1cc(-c2ccc3nc(Nc4cc(CN5CCN(C(=O)C6CC6)CC5)ccn4)[nH]c3c2)ccn1 | 7.38 |
| CC(c1ccnc(Nc2nc3ccc(-c4cc(OCC(C)(F)F)ncn4)cc3[nH]2)c1)N1CCN(C(=O)CC(F)(F)F)CC1 (single isomer, unassigned) | 8.77 |
| CN(C)c1cnc(-c2ccc3nc(Nc4cc(CN5CCN(C(=O)CC(F)(F)F)CC5)ccn4)[nH]c3c2)cn1 | 6.46 |
| O=C(CC(F)(F)F)N1CCN(Cc2ccnc(Nc3nc4ccc(-c5ccn(CC6CC6)c(=O)c5)cc4[nH]3)c2)CC1 | 7.03 |
| CCn1cc(-c2ccc3nc(Nc4cc(CN5CCN(C(=O)CC(F)(F)F)CC5)ccn4)[nH]c3c2OCC(C)C)cn1 | 7.19 |
| Nc1cc(-c2ccc3nc(Nc4cc(CN5CCN(C(=O)CC(F)(F)F)CC5)ccn4)[nH]c3c2)ccn1 | 8.39 |
| O=C(CC(F)(F)F)N1CCN(Cc2ccnc(Nc3nc4ccc(-c5cc(OCC6(C(F)(F)F)CC6)ncn5)cc4[nH]3)c2)CC1 | 7.68 |
| CCNc1cc(-c2ccc3nc(Nc4cc(CN5CCN(C(=O)CC(F)(F)F)CC5)ccn4)[nH]c3c2)ncn1 | 8.70 |
